experiment notes: Cellular uptake in human BSMC assessed as compound retention at 3 to 20 uM incubated for 3 hrs followed by drug washout measured after 3 hrs by LC-MS/MS analysis relative to initial drug accumulation
Assay type: ADME
observation type: Drug uptake (%)
Provide only the numeric value, understood in %.

Please review the following examples before continuing.
[[record]]
smiles_data = "CC[C@H]1OC(=O)[C@H](C)[C@@H](O)[C@H](C)[C@@H](O[C@@H]2O[C@H](C)C[C@H](N(C)C)[C@H]2O)[C@](C)(O)C[C@@H](C)CN(C)[C@H](C)[C@@H](O)[C@]1(C)O"
output_unit = "%"
numeric_readout = 63

[[record]]
smiles_data = "CC[C@H]1OC(=O)[C@H](C)[C@@H](O[C@H]2C[C@@](C)(OC)[C@@H](O)[C@H](C)O2)[C@H](C)[C@@H](O[C@@H]2O[C@H](C)C[C@H](N(C)C)[C@H]2O)[C@](C)(OC)C[C@@H](C)C(=O)N[C@H](C)[C@@H](O)[C@]1(C)O"
output_unit = "%"
numeric_readout = 0

[[record]]
smiles_data = "CC[C@H]1OC(=O)[C@H](C)[C@@H](O[C@H]2C[C@@](C)(OC)[C@@H](O)[C@H](C)O2)[C@H](C)[C@@H](O[C@@H]2O[C@H](C)C[C@H](N(C)C)[C@H]2O)[C@](C)(OC)C[C@@H](C)C(=O)[C@H](C)[C@@H](O)[C@]1(C)O"
output_unit = "%"
numeric_readout = 1

[[record]]
smiles_data = "CC[C@H]1OC(=O)[C@H](C)[C@@H](O[C@H]2C[C@@](C)(OC)[C@@H](O)[C@H](C)O2)[C@H](C)[C@@H](O[C@@H]2O[C@H](C)C[C@H](N(C)C)[C@H]2O)[C@](C)(O)C[C@@H](C)CN(C)[C@H](C)[C@@H](O)[C@]1(C)O"
output_unit = "%"
numeric_readout = 54

[[record]]
smiles_data = "CCCCCCCC(=O)NCCCN1C[C@H](C)C[C@@](C)(O)[C@H](O[C@@H]2O[C@H](C)C[C@H](N(C)C)[C@H]2O)[C@@H](C)[C@H](O[C@H]2C[C@@](C)(OC)[C@@H](O)[C@H](C)O2)[C@@H](C)C(=O)O[C@H](CC)[C@@](C)(O)[C@H](O)[C@H]1C"
output_unit = "%"
numeric_readout = 57

[[record]]
smiles_data = "CCCCCCCC(=O)NCCCN(C)[C@H]1C[C@@H](C)O[C@@H](O[C@@H]2[C@@H](C)[C@H](O[C@H]3C[C@@](C)(OC)[C@@H](O)[C@H](C)O3)[C@@H](C)C(=O)O[C@H](CC)[C@@](C)(O)[C@H](O)[C@@H](C)N(C)C[C@H](C)C[C@@]2(C)O)[C@@H]1O"
output_unit = "%"
numeric_readout = 47

[[record]]
smiles_data = "CC[C@H]1OC(=O)[C@H](C)[C@@H](O)[C@H](C)[C@@H](O)[C@](C)(O)C[C@@H](C)CN(C)[C@H](C)[C@@H](O)[C@]1(C)O"
output_unit = "%"
numeric_readout = 0


Proceeding to the next molecule to report its Drug uptake.
Ask | Query Drug uptake for CC[C@H]1OC(=O)[C@H](C)[C@@H](O[C@H]2C[C@@](C)(OC)[C@@H](OC(=O)CN(CC)CC)[C@H](C)O2)[C@H](C)[C@@H](O[C@@H]2O[C@H](C)C[C@H](N(C)C)[C@H]2O)[C@](C)(OC)C[C@@H](C)C(=O)N[C@H](C)[C@@H](O)[C@]1(C)O
Reply | 27

Source: ChEMBL document CHEMBL2177068
